src = patent US20250213558A1

- target: Human Cav3.1 calcium channel (Homo sapiens, UniProt O43497)
- Construct: expressed in transfected cells; host or cells: HEK-293 natClytin/TASK1+Cav3.1 cell line
- Sequence (O43497 whole entry): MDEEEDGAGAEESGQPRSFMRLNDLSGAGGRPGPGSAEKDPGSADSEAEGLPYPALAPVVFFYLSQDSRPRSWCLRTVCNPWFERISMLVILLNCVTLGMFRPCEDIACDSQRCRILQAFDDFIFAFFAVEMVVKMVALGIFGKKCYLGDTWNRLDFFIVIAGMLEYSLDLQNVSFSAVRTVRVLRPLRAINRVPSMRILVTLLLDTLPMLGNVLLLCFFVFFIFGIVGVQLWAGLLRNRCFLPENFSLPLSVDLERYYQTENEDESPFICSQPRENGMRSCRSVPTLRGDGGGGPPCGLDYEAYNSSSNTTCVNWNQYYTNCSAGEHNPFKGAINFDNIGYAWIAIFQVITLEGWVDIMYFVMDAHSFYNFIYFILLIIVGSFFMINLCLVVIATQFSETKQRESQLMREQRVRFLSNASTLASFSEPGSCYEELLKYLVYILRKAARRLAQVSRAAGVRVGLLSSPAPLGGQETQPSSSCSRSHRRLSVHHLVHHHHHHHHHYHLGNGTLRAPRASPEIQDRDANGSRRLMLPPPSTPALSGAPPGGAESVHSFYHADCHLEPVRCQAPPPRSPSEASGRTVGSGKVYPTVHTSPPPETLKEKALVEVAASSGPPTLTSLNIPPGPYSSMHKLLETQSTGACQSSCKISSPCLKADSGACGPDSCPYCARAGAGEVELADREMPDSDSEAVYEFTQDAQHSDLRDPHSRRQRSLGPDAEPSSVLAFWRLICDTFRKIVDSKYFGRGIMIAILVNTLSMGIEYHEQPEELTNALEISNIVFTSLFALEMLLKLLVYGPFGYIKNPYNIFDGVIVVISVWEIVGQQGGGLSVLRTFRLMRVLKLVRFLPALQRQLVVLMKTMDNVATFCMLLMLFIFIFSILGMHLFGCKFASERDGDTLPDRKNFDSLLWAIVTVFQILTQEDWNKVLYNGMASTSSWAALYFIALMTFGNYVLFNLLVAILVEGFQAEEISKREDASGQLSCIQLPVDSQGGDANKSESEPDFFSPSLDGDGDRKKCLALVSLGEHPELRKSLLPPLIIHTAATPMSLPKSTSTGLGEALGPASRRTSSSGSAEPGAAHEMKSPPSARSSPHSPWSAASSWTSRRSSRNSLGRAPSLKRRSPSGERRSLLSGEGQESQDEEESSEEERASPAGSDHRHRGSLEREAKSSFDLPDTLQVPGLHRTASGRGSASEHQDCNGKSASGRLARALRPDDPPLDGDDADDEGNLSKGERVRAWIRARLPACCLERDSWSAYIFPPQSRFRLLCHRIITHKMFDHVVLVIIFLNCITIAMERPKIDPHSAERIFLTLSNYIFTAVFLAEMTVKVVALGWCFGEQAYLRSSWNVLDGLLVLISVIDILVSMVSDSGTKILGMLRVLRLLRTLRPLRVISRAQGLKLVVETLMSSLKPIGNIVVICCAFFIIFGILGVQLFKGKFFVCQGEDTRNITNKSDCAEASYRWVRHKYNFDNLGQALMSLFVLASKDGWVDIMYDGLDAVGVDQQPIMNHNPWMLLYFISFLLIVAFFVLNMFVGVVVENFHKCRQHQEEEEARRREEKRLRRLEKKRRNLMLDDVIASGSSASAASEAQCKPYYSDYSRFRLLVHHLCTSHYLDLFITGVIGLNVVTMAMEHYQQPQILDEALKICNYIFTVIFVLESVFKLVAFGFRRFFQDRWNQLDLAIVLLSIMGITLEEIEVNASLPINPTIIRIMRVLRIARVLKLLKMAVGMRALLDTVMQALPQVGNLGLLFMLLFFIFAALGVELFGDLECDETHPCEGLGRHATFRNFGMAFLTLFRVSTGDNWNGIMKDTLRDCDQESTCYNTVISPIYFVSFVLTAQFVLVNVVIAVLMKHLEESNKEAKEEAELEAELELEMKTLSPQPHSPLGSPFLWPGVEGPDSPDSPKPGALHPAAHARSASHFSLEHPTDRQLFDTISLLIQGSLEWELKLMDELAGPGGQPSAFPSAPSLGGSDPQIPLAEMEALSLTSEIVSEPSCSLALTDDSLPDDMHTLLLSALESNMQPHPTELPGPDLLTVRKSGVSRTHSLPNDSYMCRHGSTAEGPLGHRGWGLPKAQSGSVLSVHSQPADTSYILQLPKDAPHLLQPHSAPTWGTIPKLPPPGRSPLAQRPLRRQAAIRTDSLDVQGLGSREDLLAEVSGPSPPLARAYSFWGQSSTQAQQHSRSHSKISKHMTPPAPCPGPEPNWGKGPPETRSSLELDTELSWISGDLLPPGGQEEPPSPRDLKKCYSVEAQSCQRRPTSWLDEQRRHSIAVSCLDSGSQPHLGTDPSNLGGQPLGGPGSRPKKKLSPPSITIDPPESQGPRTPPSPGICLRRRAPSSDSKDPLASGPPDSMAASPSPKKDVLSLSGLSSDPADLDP
- test: Human Cav3.1 calcium channel patch clamp assay (SyncroPatch 384PE; single point and IC50, voltage dependent block)
- Format: cell-based
- measurementConditions: Testing Conc 1.25; HEK-293 natClytin/TASK1+Cav3.1 cell line, patch clamp
Reported % Inhibition (Single Point Data) values for a set of molecules
The reply should contain only the number, in %.

Some solved entries appear below for comparison.
CC(C)(C)NC(=O)CN1C2CC1CN(CC(=O)Nc1cc(F)cc(Cl)c1)C2    83.732
O=C(CN1CC2CC1CN2CCNC(=O)C1(C(F)(F)F)CC1)Nc1ccc(F)c(Cl)c1 (centres unmarked)    83.021
CC(C)(C)NC(=O)CN1CC2CC1CN2CC(=O)Nc1ccc(F)c(Cl)c1 (centres unmarked)    83.643
OC1(CCN2C3CC2CN(Cc2nc4c(Cl)cc(F)cc4[nH]2)C3)CCCC1    79.783

Now let's try a different one.
Return reported % Inhibition (Single Point Data); argument: O=C(CN1C2CCC1CN(Cc1nc3c(Cl)cc(F)cc3[nH]1)C2)N1CCC(F)(F)CC1
100.06
